Reference source for all entries: patent US5340833A

Target: human plasma kallikrein (Homo sapiens)
Construct: purchased Calbiochem
Sequence (P03952 391-638 limits assumed): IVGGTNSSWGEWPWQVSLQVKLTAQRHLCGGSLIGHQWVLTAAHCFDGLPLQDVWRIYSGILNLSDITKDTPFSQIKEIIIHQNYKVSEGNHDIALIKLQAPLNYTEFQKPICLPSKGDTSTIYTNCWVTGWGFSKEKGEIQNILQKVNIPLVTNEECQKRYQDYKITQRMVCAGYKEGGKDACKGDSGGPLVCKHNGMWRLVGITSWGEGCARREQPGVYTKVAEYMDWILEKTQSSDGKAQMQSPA
Sequence (P03952 20-390 limits assumed): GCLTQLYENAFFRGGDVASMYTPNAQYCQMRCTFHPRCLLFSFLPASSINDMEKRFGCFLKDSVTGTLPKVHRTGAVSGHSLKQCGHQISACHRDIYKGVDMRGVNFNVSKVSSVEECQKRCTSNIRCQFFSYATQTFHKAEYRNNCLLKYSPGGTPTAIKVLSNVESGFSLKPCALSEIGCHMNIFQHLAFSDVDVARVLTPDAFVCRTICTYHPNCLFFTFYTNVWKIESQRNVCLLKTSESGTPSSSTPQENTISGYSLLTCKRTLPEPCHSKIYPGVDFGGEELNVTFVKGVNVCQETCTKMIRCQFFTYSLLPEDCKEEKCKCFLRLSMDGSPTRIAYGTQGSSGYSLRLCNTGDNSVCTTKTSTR
Assay: Kallikrein Assay
Assay type: biochemical
Conditions: Table 5; read-out: Kallikrein inhibitory activity
pIC50: −log10 of the molar value.
MEASUREMENT_LABEL: pIC50

>>> print(df.to_string())
                                   compound                             test_system  recorded_measurement
0  Cl.N=C(N)c1cc2c(I)cccc2s1 [Compound 5, hydrochloride]  human plasma kallikrein (Homo sapiens)                  5.08

###

Biological target: urokinase (Homo sapiens)
Construct: human high molecular weight urokinase; purchased American Diagnostica, Greenwich, Conn
Assay: Urokinase Indirect (Plasminogen-Linked) Assay
Format: biochemical
Settings: Table 3 column 4, simple number, unit inferred; read-out: uPA Indirect (plasminogen-linked) IC50
pIC50: −log10 of the molar value.
Let's look at some molecules and their measured pIC50.
MEASUREMENT_LABEL: pIC50

In [3]: df
Out[3]:
                                   molecule  measurement_label  recorded_measurement
0  Cl.Cl.N=C(N)c1cc2c(-c3cccnc3)cccc2s1 [Compound 48, bis-hydrochloride]              pIC50                  6.25
1  Cl.N=C(N)c1cc2c(/C=C/c3ccco3)cccc2s1 [Compound 67, hydrochloride]              pIC50                  6.71
2  CCCc1cccc2sc(C(=N)N)cc12.Cl [Compound 9, hydrochloride]              pIC50                  6.18
3  CCC/C=C/c1cccc2sc(C(=N)N)cc12.Cl [Compound 25, hydrochloride]              pIC50                  6.85

###

Biological target: human high molecular weight urokinase (Homo sapiens, UniProt P00749)
Construct: human high molecular weight urokinase; purchased American Diagnostica, Greenwich, Conn
Test: Urokinase Direct Assay
Type: biochemical
Details: read-out: uPA Direct: percentage of residual urokinase activity relative to inhibitor-free controls; heading: uPA Direct: percentage of residual urokinase activity relative to inhibitor-free controls; inhibitor concentration of 1 mM
Counter-ions that a name gives are not always drawn.
The label depends only on residual urokinase activity at 1000 µM: T if it is at least 5%, F if it is smaller.

                                   compound  group_label
0  N=C(N)c1cc2c(C=O)cccc2s1 [Compound 55, hydrochloride]            F
1  Cc1ccc2cc(C(=N)N)sc2c1 [Compound 303, hydrochloride]            T
2  CCCc1ccc2sc(C(=N)N)cc2c1 [Compound 107, hydrochloride]            F
3  N=C(N)c1cc2c(Br)cccc2s1 [Compound 4, hydrochloride]            F
4  N=C(N)c1cc2c(F)cccc2s1 [Compound 2, hydrochloride]            T

###

Target: human high molecular weight urokinase (Homo sapiens)
Construct: human high molecular weight urokinase; purchased American Diagnostica, Greenwich, Conn
Experiment: Urokinase Direct Assay
Assay type: biochemical
Settings: read-out: uPA Direct: percentage of residual urokinase activity relative to inhibitor-free controls; heading: uPA Direct: percentage of residual urokinase activity relative to inhibitor-free controls; inhibitor concentration of 1 mM
Structures can show the parent of a compound that is named as a salt.
MEASUREMENT_LABEL: residual urokinase activity at 1000 µM (%)

                                   compound                       measurement_label  relational_operator  recorded_measurement
0  N=C(N)c1cc2cc(-c3cccnc3)ccc2s1 [Compound 125, hydrochloride]  residual urokinase activity at 1000 µM                    =                   3.6
1  COc1ccc(F)c2cc(C(=N)N)sc12 [Compound 310, hydrochloride]  residual urokinase activity at 1000 µM                    >                    90
2  CCCCCCCC/C=C/c1cccc2sc(C(=N)N)cc12 [Compound 31, hydrochloride]  residual urokinase activity at 1000 µM                    =                   5.2
3  CC(C)C=Cc1ccc2sc(C(=N)N)cc2c1 [Compound 119, hydrochloride]  residual urokinase activity at 1000 µM                    =                   4.9
4  N=C(N)c1cc2c(-c3ccc(-c4ccc5c(c4)OCO5)o3)cccc2s1 [Compound 79, hydrochloride]  residual urokinase activity at 1000 µM                    =                   1.5
5  CCc1ccc2sc(C(=N)N)cc2c1 [Compound 106, hydrochloride]  residual urokinase activity at 1000 µM                    =                   3.6
6  Cc1ccc2sc(C(=N)N)cc2c1Br [Compound 202, hydrochloride]  residual urokinase activity at 1000 µM                    =                     3
7  N=C(N)c1cc2c(C=CC3CC3)cccc2s1 [Compound 34, hydrochloride]  residual urokinase activity at 1000 µM                    =                  0.46
8  N=C(N)c1ccc(-c2cccc3sc(C(=N)N)cc23)cc1 [Compound 47, bis-hydrochloride]  residual urokinase activity at 1000 µM                    =                   7.6

###

Biological target: urokinase (Homo sapiens, UniProt P00749)
Construct: human high molecular weight urokinase; purchased American Diagnostica, Greenwich, Conn
Test: Urokinase Indirect (Plasminogen-Linked) Assay
Assay type: biochemical
Conditions: Table 3 column 4, simple number, unit inferred; read-out: uPA Indirect (plasminogen-linked) IC50
Structures can show the parent of a compound that is named as a salt.
Binary label based on IC50 with cut-off 300 nM: below gives 1, not below gives 0.

In [3]: df
Out[3]:
                                   molecule                               test_system  group_label
0  Cl.N=C(N)c1cc2c(-c3cccs3)cccc2s1 [Compound 50, hydrochloride]  urokinase (Homo sapiens, UniProt P00749)            0
1  Cl.N=C(N)c1cc2c(-c3ccccc3)cccc2s1 [Compound 44, hydrochloride]  urokinase (Homo sapiens, UniProt P00749)            0
2  Cl.N=C(N)c1cc2cc(-c3ccco3)ccc2s1 [Compound 126, hydrochloride]  urokinase (Homo sapiens, UniProt P00749)            0
3  Cl.N=C(N)c1cc2c(C#Cc3ccco3)cccc2s1 [Compound 75, hydrochloride]  urokinase (Homo sapiens, UniProt P00749)            1
4  C=CCc1cccc2sc(C(=N)N)cc12.Cl [Compound 19, hydrochloride]  urokinase (Homo sapiens, UniProt P00749)            0
5  CC(C)CCc1cccc2sc(C(=N)N)cc12.Cl [Compound 12, hydrochloride]  urokinase (Homo sapiens, UniProt P00749)            0
6  N=C(N)c1cc2c(C=Cc3ccccc3)cccc2s1 [Compound 63, hydrochloride]  urokinase (Homo sapiens, UniProt P00749)            1
7  Cl.N=C(N)c1cc2c(-c3cc4ccccc4o3)cccc2s1 [Compound 51, hydrochloride]  urokinase (Homo sapiens, UniProt P00749)            0

###

Molecular target: human two-chain tPA (Homo sapiens)
Construct: human two-chain tPA was substituted for urokinase; purchased American Diagnostica
Sequence (P00750 311-562 limits assumed): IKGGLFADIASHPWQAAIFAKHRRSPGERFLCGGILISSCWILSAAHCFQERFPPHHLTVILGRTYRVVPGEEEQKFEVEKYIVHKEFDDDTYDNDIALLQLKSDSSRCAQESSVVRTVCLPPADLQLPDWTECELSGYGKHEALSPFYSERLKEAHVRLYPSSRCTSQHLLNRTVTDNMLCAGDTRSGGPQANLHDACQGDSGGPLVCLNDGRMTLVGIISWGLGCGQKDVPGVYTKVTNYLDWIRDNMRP
Sequence (P00750 36-310 limits assumed): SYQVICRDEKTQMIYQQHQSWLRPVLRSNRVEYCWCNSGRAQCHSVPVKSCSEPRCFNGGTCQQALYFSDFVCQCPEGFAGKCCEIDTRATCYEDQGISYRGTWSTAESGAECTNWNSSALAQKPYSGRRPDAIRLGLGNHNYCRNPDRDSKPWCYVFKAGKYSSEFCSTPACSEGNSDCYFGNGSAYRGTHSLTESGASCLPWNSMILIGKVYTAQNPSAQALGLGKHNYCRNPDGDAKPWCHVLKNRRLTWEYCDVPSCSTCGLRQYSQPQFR
Test: tPA Indirect (Plasminogen-Linked) Assay (tPA Direct Assay result where lower)
Assay type: biochemical
Conditions: tPA Indirect Plasminogen-Linked Assay; in rare cases direct assay result if lower; read-out: tPA IC50
pIC50: −log10 of the molar value. Where a name gives a salt, the structure may show the parent alone.
MEASUREMENT_LABEL: pIC50

In [3]: df
Out[3]:
                                    molecule  measurement_label  recorded_measurement
 0  CCCCCCc1cccc2sc(C(=N)N)cc12.Cl [Compound 13, hydrochloride]              pIC50                  4.05
 1  Cl.N=C(N)c1cc2c(-c3ccc(-c4ccccc4)o3)cccc2s1 [Compound 78, hydrochloride]              pIC50                  4.59
 2  Cl.N=C(N)c1cc2cc(-c3ccco3)ccc2s1 [Compound 126, hydrochloride]              pIC50                  3.85
 3  C=CCOCc1cc2ccc3sc(C(=N)N)cc3c2s1 [Compound 208, hydrochloride]              pIC50                  4.24
 4  C=CCc1cccc2sc(C(=N)N)cc12.Cl [Compound 19, hydrochloride]              pIC50                  4.24
 5  Cl.N=C(N)c1cc2cc(-c3ccccc3)ccc2s1 [Compound 124, hydrochloride]              pIC50                  3.59
 6  Cl.N=C(N)c1cc2c(-c3cc4ccccc4o3)cccc2s1 [Compound 51, hydrochloride]              pIC50                  3.95
 7  Cl.N=C(N)c1cc2c(-c3ccccc3)cccc2s1 [Compound 44, hydrochloride]              pIC50                  4.19
 8  N=C(N)c1ccc(-c2ccc(-c3cccc4sc(C(=N)N)cc34)o2)cc1 [Compound 53, bis-hydrochloride]              pIC50                  5.39
 9  N=C(N)c1cc2cc(C=CC3CC3)ccc2s1 [Compound 121, hydrochloride]              pIC50                  3.76
10  C=Cc1cccc2sc(C(=N)N)cc12.Cl [Compound 17, hydrochloride]              pIC50                  5.07
11  Cl.N=C(N)c1cc2c(I)cccc2s1 [Compound 5, hydrochloride]              pIC50                  4.07
12  CCCCc1cccc2sc(C(=N)N)cc12.Cl [Compound 10, hydrochloride]              pIC50                  3.83
13  C=Cc1ccc2sc(C(=N)N)cc2c1.Cl [Compound 114, hydrochloride]              pIC50                  4.43
14  N=C(N)c1cc2c(C=Cc3ccc4c(c3)OCCO4)cccc2s1 [Compound 66, hydrochloride]              pIC50                  4.82
15  Cl.N=C(N)c1cc2c(C#Cc3ccco3)cccc2s1 [Compound 75, hydrochloride]              pIC50                  4.48
16  CSc1cccc2sc(C(=N)N)cc12.Cl [Compound 58, hydrochloride]              pIC50                  3.64
17  Cl.N=C(N)c1cc2c(/C=C/c3ccco3)cccc2s1 [Compound 67, hydrochloride]              pIC50                  4.59
18  CCCc1cccc2sc(C(=N)N)cc12.Cl [Compound 9, hydrochloride]              pIC50                  3.78
19  Cc1cccc2sc(C(=N)N)cc12 [Compound 6, hydrochloride]              pIC50                  3.32
20  C=Cc1ccc2sc(C(=N)N)cc2c1SC.Cl [Compound 201, hydrochloride]              pIC50                  4.70
21  Cl.N=C(N)c1cc2c(C#Cc3ccc4c(c3)OCO4)cccc2s1 [Compound 77, hydrochloride]              pIC50                  5.08
22  CC(C)C=Cc1cccc2sc(C(=N)N)cc12 [Compound 22, hydrochloride]              pIC50                  4.37
23  CCCCC=Cc1cccc2sc(C(=N)N)cc12 [Compound 29, hydrochloride]              pIC50                  4.07
24  CC(C)/C=C/c1cccc2sc(C(=N)N)cc12.Cl [Compound 23, hydrochloride]              pIC50                  4.39
